A collection of compounds and their measured TGI
Tested on: SNB-75 CNS
Assay: NCI tumour cell line growth inhibition, 48 h
Supply the numeric figure in nM, leaving out any unit text.

Param readout= TGI; system= SNB-75 CNS; entry= Cc1nc2cc(-c3nn(C(C)C)c4ncnc(N)c34)ccc2o1 ; returns value.
39.1

Can you look up TGI on SNB-75 CNS for CN(CCCNC(=O)c1nn(-c2ccccc2)c2c1ccc1ccccc12)CCCNC(=O)c1nn(-c2ccccc2)c2c1ccc1ccccc12 ?
2880

###

Test system: MDA-MB-231 breast
Assay: NCI tumour cell line growth inhibition, 48 h
Catalogue of TGI readings, one per entry.

Worked examples, 3 molecules total:
COC1=CC(=O)c2c(cc(COP(N)(=O)N(CCBr)CCBr)n2C)C1=O (stereo unspecified): 7.1 µM
COc1ccc(/C=N/N/C(O)=c2/sc(=C(C#N)C#N)n(-c3ccccc3)c2=N)cc1: > 100 µM
N#CC(C#N)=Cc1c[nH]c(=O)[nH]c1=O: > 100 µM

Lookup: TGI / MDA-MB-231 breast / O=C1OCC2=C1C(c1ccc3c(c1)OCO3)c1cc3c(cc1O2)OCO3 (stereo unspecified)
> 100 µM

Lab request: please report TGI under test system MDA-MB-231 breast for O=c1oc2ccc(Cl)cc2c2ccccc12
41.2 µM

Hi! What's the reported TGI for CCCN1C/C(=C\c2ccc(O)c(OC)c2)C(=O)/C(=C/c2ccc(O)c(OC)c2)C1 on MDA-MB-231 breast?
> 100 µM

Query for MDA-MB-231 breast: what TGI does the record show for Cc1ccc(C2=NN(c3ccc(S(C)(=O)=O)cc3)C(=O)CC2)cc1 ?
> 100 µM
